Numbers sourced from ChEMBL document CHEMBL1926608.

Tested on: NCI-H226
Assay method text: Growth inhibition of human NCI-H226 cells after 72 hrs by MTT assay
Assay type: functional
Condition context: NCI-H226, 72 h
Test readout: log10 of GI50 (log10 of the value in µM)
Could you please treat all values as log10 of GI50 in µM?

[Q] Which log10 of GI50 value belongs to CN(C)c1ccc(/C=C/c2ccc3ccccc3[n+]2C)cc1 ?
[A] -0.20

[Q] # log10 of GI50 lookup, item Cn1cccc1/C=C/c1cc[n+](C)cc1
[A] 2.00

[Q] Fill blank: measured log10 of GI50 of the compound C[n+]1c(/C=C/c2ccc(-c3ccccc3)s2)ccc2ccccc21 is ____.
[A] 0.16

[Q] I have this compound here, CN(C)c1ccc(/C=C(\C#N)c2cccc[n+]2C)cc1 , and I need its recorded log10 of GI50.
[A] 1.29

[Q] Quick check: log10 of GI50 of CN(C)c1ccc(/C=C/c2cc[n+](C)cc2)cc1 ?
[A] 1.00

[Q] Please look up its log10 of GI50: CCCCN(CCCC)c1ccc(-c2ccc(/C=C/c3ccc4ccccc4[n+]3C)s2)s1
[A] -1.34

[Q] What value of log10 of GI50 has been reported for the following compound? CN(C)c1ccc(/C=C/c2cccc(/C=C/c3ccc(N(C)C)cc3)[n+]2C)cc1
[A] -1.35

[Q] Given the entry Cn1cccc1/C=C/c1cccc[n+]1C , report its measured log10 of GI50.
[A] 2.00

[Q] Can you look up the measured log10 of GI50 of CCCCN(CCCC)c1ccc(-c2ccc(/C=C/c3cccc(/C=C/c4ccc(-c5ccc(N(CCCC)CCCC)s5)s4)[n+]3C)s2)s1 for me?
[A] 0.00

[Q] What measured log10 of GI50 goes with C[n+]1c(/C=C/c2ccc(N(c3ccccc3)c3ccccc3)cc2)cccc1/C=C/c1ccc(N(c2ccccc2)c2ccccc2)cc1 ?
[A] 0.30
